All values here come from the supplement of paper PMC10567573.

B1: KRT33B (parent)
chain: PAVDLNQVLNETRNQYEALVETNR

variants of: B1; test: protein stability index of a GFP-peptide fusion (GPS, HEK-293T) (PSI 1-6); higher = more stable; conditions: c terminus: a fixed tail appended;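 also: lentivirally expressed fusions sorted by FACS into six bins by GFP to DsRed ratio, PSI derived from sequencing read proportions per bin multiplied by bin number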
Classification scheme (protein stability index): label 0 = under 3, label 1 = from 3 up to 4, label 2 = 4 and over

{"Seq": "PNVDLNQVLNETRNQYEALVETNR [A2N]", "Cat": "label 2"}

Then there is this variant:
Query: Any idea which band PAVDLNQFLNETRNQYEALVETNR [V8F] is in?
Result: label 1
